- Tested on: Oryza sativa
- experimentSummary: Test of plant growth inhibiting action on sprouted seeds grown 7 days in a dispersion of wettable powder, visual evaluation
- Assay type: in vivo
- conditionSet: 168 h, Concentration 20 ppm, 20% wettable powder dispersed in water, 25°C, lighted thermostat, visual grade 1-5, read-out: Growth Inhibition, Seed of Plant Oryza sativa (converted)
measuredAttribute: inhibition at 20 ppm (%)
Give bare numbers, in %.

[[record]]
compound = "C=C(COc1ccc(C#N)cc1)C(=O)OC [Compound 4-22]"
measuredattribute = "inhibition at 20 ppm"
units = "%"
endpointresult = 100


Provide the reported inhibition at 20 ppm of each entry below, same order.
1. C=C(COc1ccc2c(C)cc(=O)oc2c1)C(=O)OC [Compound 4-25]
2. C=C(CSC1CCCCC1)C(=O)OC [Compound 4-7]
3. C=C(COc1cccc(C)c1)C(=O)OC [Compound 4-16]

result:
25
0
75

Field: inhibition at 20 ppm. Fill in for each record below.
1. C=C(CSc1ccc(C)cc1)C(=O)OC [Compound 4-3]
2. C=C(CSc1ccc2ccccc2c1)C(=O)OC [Compound 4-5]
3. C=C(CSCc1ccc(Cl)cc1)C(=O)OC [Compound 4-9]
4. C=C(CSc1ccc(Cl)cc1)C(=O)OC [Compound 4-2]

result:
1. 75
2. 75
3. 100
4. 100

Please state inhibition at 20 ppm for every compound in the list that follows.
1. C=C(COc1cccc2ncccc12)C(=O)OC [Compound 4-27]
2. C=C(CSc1ccccc1)C(=O)OC [Compound 4-1]
3. C=C(COc1ccc(C=Cc2ccccc2)cc1)C(=O)OC [Compound 4-28]

result:
75
100
25
